tgt: Neu5Ac(a2-3)Gal(b1-3)GlcNAc(b1-3)Gal(b1-4)GlcNAc
protocol summary: glycan array binding signal (z-score within array); higher = stronger binding
test settings: glycan notation: IUPAC condensed, linker removed
Shown is part of a subset that was picked to be rich in the strongest signals.
readout kind: glycan array binding signal (z-score)

INSERT INTO measurements (binder, readout_kind, measured_value) VALUES
  ('FimD (Bordetella pertussis) (protein) MPARVISFCGAALAVWAGLAVQPAMAVDPPVDCGRALGLHFWSSASLISDQTPDGTLIGKPVVGRSLLSKSCKVPDDIKEDLSDNHDGEPVDIVLELGSNYKIRPQSYGHPGIVVDLPFGSTEETGIAIYIDFGSSPMQKVGERQWLYPQKGEVLFDVLTINGDNAEVRYQAIKVGPLKRPRKLVLSQFPNLFTYKWVFMRGTSQERVLAQGTIDTDVATSTIDLKTCRYTSQTVSLPIIQRSALTGVGTTLGMTDFQMPFWCYGWPKVSVYMSATKTQTGVDGVALPATGQAAGMASGVGVQLINGKTQQPVKLGLQGKIALPEAQQTESATFSLPMKAQYYQTSTSTSAGKLSVTYAVTLNYD', 'glycan array binding signal (z-score)', -0.268),
  ('PEB3 (Campylobacter jejuni), Q0PBL7 (protein) MKKIITLFGACALAFSMANADVNLYGPGGPHTALKDIANKYSEKTGVKVNVNFGPQATWFEKAKKDADILFGASDQSALAIASDFGKDFNVSKIKPLYFREAIILTQKGNPLKIKGLKDLANKKVRIVVPEGAGKSNTSGTGVWEDMIGRTQDIKTIQNFRNNIVAFVPNSGSARKLFAQDQADAWITWIDWSKSNPDIGTAVAIEKDLVVYRTFNVIAKEGASKETQDFIAYLSSKEAKEIFKKYGWRE', 'glycan array binding signal (z-score)', -0.117),
  ('CBM40 CPF071 (Clostridium perfringens) (protein) MAHHHHHHVGTGSNDDDDKSPDPMLSSLGEYKDINLESSNASNITYDLEKYKNLDEGTIVVRFNSKDSKIQSLLGISNSKTKNGYFNFYVTNSRVGFELRNQKNEGNTQNGTENLVHMYKDVALNDGDNTVALKIEKNKGYKLFLNGKMIKEVKDTNTKFLNNIENLDSAFIGKTNRYGQSNEYNFKGNIGFMNIYNEPLGDDYLLSKTGETK', 'glycan array binding signal (z-score)', -0.328);
